SUBJECT_OF_TEST: T1, recombinant human extracellular domain of EGFR fused to an IgG1 Fc (human, UniProt P00533 25-645)
T1 construct: Bought (R&D Systems); captured on anti-human Fc IgG for SPR; also called EGFR-Fc
MEASUREMENT_DESCRIPTION: SPR (ProteOn) per Example 3
MEASURED_PARAMETER: Kd (nM)

1. ECB96 (designed binder, not shown: small tags and cut ends, Bispecific: P54AR4-83v22, (AP)5, P114AR9P122-A7v2) MLPAPKNLVVSEVTEDSARLSWDDPWAFYESFLIQYQESEKVGEAIVLTVPGSERSYDLTGLKPGTEYTVSIYGVHNVYKDTNIRGLPLSAIFTTAPAPAPAPAPLPAPKNLVVSRVTEDSARLSWTAPDAAFDSFWIRYFEFVSKGDAIVLTVPGSERSYDLTGLKPGTEYVVNILGVKGGSISPPLSAIFTT: 1.6
2. ECB109 (designed binder, not shown: small tags and cut ends, Bispecific: P54AR4-83v23, (AP)5, P114AR7P95-C5v2) MLPAPKNLVVSEVTEDSARLSWDDPHAFYESFLIQYQESEKVGEAIVLTVPGSERSYDLTGLKPGTEYTVSIYGVHNVYKDTNIRGLPLSAIFTTAPAPAPAPAPLPAPKNLVVSRVTEDSARLSWTAPDAAFDSFWIRYFEFLGSGEAIVLTVPGSERSYDLTGLKPGTEYVVNILSVKGGSISPPLSAIFTT: 17.3

All values here come from patent US20210301025A1.
